property.label: melting point

Task item: Look up and report measured melting point for this entry: COC(=O)CCCCCNC(N)=S
Reply: 84 to 86 °C

Task item: Look up and report measured melting point for this entry: COc1ccccc1CC(C)=CC(=O)O
Reply: 96 to 98 °C

Task item: Look up and report measured melting point for this entry: O=C(O)C(Oc1ccc(Cl)cc1)c1ccccc1 (stereo not drawn)
Reply: 161 to 163 °C

Task item: Look up and report measured melting point for this entry: O=Cc1c(O)cccc1Cl
Reply: 52 to 54 °C

Task item: Look up and report measured melting point for this entry: CN(C)c1ccc([N+](=O)[O-])c(O)c1
Reply: 140 to 142 °C

Task item: Look up and report measured melting point for this entry: NCc1ccc(-n2cnc3ccccc32)cc1
Reply: 72 to 74 °C

Task item: Look up and report measured melting point for this entry: CC(Cl)C(=O)NCCc1ccc2c(c1)OCCO2 (stereo not drawn)
Reply: 106 to 108 °C

Task item: Look up and report measured melting point for this entry: Cc1cc(C#N)ccc1C(=O)O
Reply: 192 to 194 °C

Task item: Look up and report measured melting point for this entry: N#Cc1ccccc1CN1CCCC1C(N)=O (stereo not drawn)
Reply: 88 to 90 °C

Task item: Look up and report measured melting point for this entry: Cc1ccc(C(=O)O)c(Br)c1
Reply: 143 to 147 °C

Task item: Look up and report measured melting point for this entry: O=C(O)c1cnco1
Reply: 226 to 230 °C

Task item: Look up and report measured melting point for this entry: O=C(O)C1=CCCO1
Reply: 98 to 100 °C

Task item: Look up and report measured melting point for this entry: CC(C)(C)c1cc(C(=O)O)c(O)c(C(C)(C)C)c1
Reply: 157 to 162 °C

Task item: Look up and report measured melting point for this entry: COc1c(F)ccc(F)c1C(=O)O
Reply: 82 to 84 °C

Task item: Look up and report measured melting point for this entry: CCOC(=O)c1sc(SC)nc1N
Reply: 80 to 82 °C

Task item: Look up and report measured melting point for this entry: O=C(O)c1csc(Cc2cccc(F)c2)n1
Reply: 149 to 151 °C

Task item: Look up and report measured melting point for this entry: CCCOc1cc(C=O)ccc1OC
Reply: 35 to 37 °C

Task item: Look up and report measured melting point for this entry: CCCCc1ccc(-n2nnnc2S)cc1
Reply: 88 to 92 °C

Task item: Look up and report measured melting point for this entry: CN1NC=C2CN=C(Cl)N=C21
Reply: 189 to 191 °C

Task item: Look up and report measured melting point for this entry: Nc1nonc1C(=O)N1CCCCC1
Reply: 86 to 88 °C

Task item: Look up and report measured melting point for this entry: COc1cc(C(=O)O)cc(OC)c1C(C)C
Reply: 164 to 166 °C

Task item: Look up and report measured melting point for this entry: Cc1cc(C(=O)O)[nH]c(=O)n1
Reply: 209 to 211 °C

Task item: Look up and report measured melting point for this entry: NC(=O)c1ccc(Cl)cc1N
Reply: 179 to 181 °C

Task item: Look up and report measured melting point for this entry: O=C(O)c1cccc(CN2CCS(=O)(=O)CC2)c1
Reply: 230 to 232 °C

Task item: Look up and report measured melting point for this entry: N#CCC(=O)NC1CCCC1
Reply: 92 to 94 °C

Task item: Look up and report measured melting point for this entry: COc1ccccc1CC(N)=O
Reply: 127 to 129 °C

Task item: Look up and report measured melting point for this entry: CNC(CO)c1cccc(Br)c1 (stereo not drawn)
Reply: 79 to 81 °C

Task item: Look up and report measured melting point for this entry: N#CC(c1ccccc1)(c1ccc(F)cc1)c1ccc(F)cc1
Reply: 74 to 76 °C

Task item: Look up and report measured melting point for this entry: Cc1ccc(NC(=O)C(C)Cl)cc1S(=O)(=O)N1CCOCC1 (stereo not drawn)
Reply: 151 to 153 °C

Task item: Look up and report measured melting point for this entry: CC(=O)c1ccc(OCC(=O)N2CCOCC2)cc1
Reply: 55 to 59 °C

Task item: Look up and report measured melting point for this entry: O=C(O)c1cn(-c2cccc(Cl)c2F)nn1
Reply: 139 to 141 °C

Task item: Look up and report measured melting point for this entry: Nc1cc(NC(=O)Cn2cccnc2=O)ccc1F
Reply: 251 to 253 °C

Task item: Look up and report measured melting point for this entry: Cc1c(Cl)cccc1-n1ccnc1SCC(=O)O
Reply: 144 to 146 °C

Task item: Look up and report measured melting point for this entry: CC(C)(C)n1ncc2c(=O)[nH]c(Cl)nc21
Reply: 191 to 193 °C

Task item: Look up and report measured melting point for this entry: Nc1cc(Br)c(F)cc1Cl
Reply: 71 to 73 °C

Task item: Look up and report measured melting point for this entry: Cc1cc(N)n(-c2cccc(C(F)(F)F)c2)n1
Reply: 88 to 92 °C

Task item: Look up and report measured melting point for this entry: O=C(O)CNc1ncnc2ccccc12
Reply: 219 to 221 °C

Task item: Look up and report measured melting point for this entry: O=C(CCl)NN1C(=O)NC2(CCCCC2)C1=O
Reply: 105 to 107 °C

Task item: Look up and report measured melting point for this entry: NS(=O)(=O)c1ccc2c(c1)CCCC2
Reply: 135 to 137 °C

Task item: Look up and report measured melting point for this entry: O=C(O)CCSc1nc2ccccc2s1
Reply: 149 to 151 °C

Task item: Look up and report measured melting point for this entry: Cc1cc(C(=O)CCl)c(C)n1C(C)C
Reply: 45 to 47 °C

Task item: Look up and report measured melting point for this entry: Brc1ncnc2ccccc12
Reply: 94 to 96 °C

Task item: Look up and report measured melting point for this entry: O=C(O)CCn1cnc2sc3c(c2c1=O)CCCC3
Reply: 193 to 195 °C

Task item: Look up and report measured melting point for this entry: CC(C)(C)S(=O)(=O)CC(=O)O
Reply: 89 to 91 °C

Task item: Look up and report measured melting point for this entry: C#CCSc1cccc(C(=O)O)c1
Reply: 121 to 123 °C

Task item: Look up and report measured melting point for this entry: CC(C)NC(=O)CN1CCCNCC1
Reply: 43 to 45 °C

Task item: Look up and report measured melting point for this entry: Cc1nc(-c2cccc(O)c2)no1
Reply: 126 to 128 °C

Task item: Look up and report measured melting point for this entry: Cc1ccccc1Nc1nc2sc(C(=O)O)cc2s1
Reply: 232 to 234 °C

###

Please provide measured melting point for the entries that follow.

Task item: Look up and report measured melting point for this entry: CC(C)Oc1ccc(CNC(=O)CCl)cc1
Reply: 63 to 65 °C

Task item: Look up and report measured melting point for this entry: O=C1CCc2c(F)cc(Br)cc21
Reply: 114 to 116 °C

Task item: Look up and report measured melting point for this entry: NS(=O)(=O)c1cc(Cl)c(F)c(C(=O)O)c1
Reply: 228 to 230 °C

Task item: Look up and report measured melting point for this entry: CCCCc1ccc(NS(=O)(=O)c2ccc(N)cc2OC)cc1
Reply: 170 to 172 °C

Task item: Look up and report measured melting point for this entry: CNC(=O)c1cncc(C=CC(=O)O)c1
Reply: 253 to 255 °C

Task item: Look up and report measured melting point for this entry: Cn1c(C(=O)O)ccc1-c1ccccc1
Reply: 143 to 145 °C

Task item: Look up and report measured melting point for this entry: O=C(O)CSc1ccccc1O
Reply: 51 to 53 °C

Task item: Look up and report measured melting point for this entry: O=S(=O)(F)c1ccc2[nH]ncc2c1
Reply: 175 to 177 °C

Task item: Look up and report measured melting point for this entry: Nc1nnc(SCC2COc3ccccc3O2)s1 (centres undefined)
Reply: 161 to 163 °C

Task item: Look up and report measured melting point for this entry: Cc1ccccc1-n1ncc(C(=O)O)c1N
Reply: 159 to 161 °C

Task item: Look up and report measured melting point for this entry: O=C(O)C1CCCN1C(=O)c1cccs1 (centres undefined)
Reply: 145 to 147 °C

Task item: Look up and report measured melting point for this entry: O=C(O)c1cc2c(F)cccc2s1
Reply: 214 to 216 °C

Task item: Look up and report measured melting point for this entry: O=C1OCCc2cnc3nc(C(F)(F)F)nn3c21
Reply: 185 to 187 °C

Task item: Look up and report measured melting point for this entry: O=C(O)c1ccc(-n2cccn2)nc1
Reply: 267 to 269 °C

Task item: Look up and report measured melting point for this entry: O=S(=O)(CCCBr)c1ccc(F)cc1
Reply: 36 to 38 °C

Task item: Look up and report measured melting point for this entry: O=C(O)c1cccnc1Oc1cccnc1
Reply: 190 to 192 °C

Task item: Look up and report measured melting point for this entry: CCc1ccccc1OCC(=O)O
Reply: 123 to 127 °C

Task item: Look up and report measured melting point for this entry: Cc1cc(C)cc(C(N)c2cccnc2)c1 (centres undefined)
Reply: 47 to 49 °C

Task item: Look up and report measured melting point for this entry: CCNCC(=O)Nc1ccc(OC)cc1
Reply: 88 to 90 °C

Task item: Look up and report measured melting point for this entry: Nc1ccn(Cc2cccc3cccnc23)n1
Reply: 120 to 122 °C

Task item: Look up and report measured melting point for this entry: O=C(O)c1sc2cccc(F)c2c1COc1ccccc1
Reply: 206 to 208 °C

Task item: Look up and report measured melting point for this entry: O=Cc1c(O)ccc([N+](=O)[O-])c1Cl
Reply: 118 to 120 °C

Task item: Look up and report measured melting point for this entry: O=C(O)c1ccc(COc2ccccc2)o1
Reply: 169 to 171 °C

Task item: Look up and report measured melting point for this entry: CN(C)c1cccc(C(=O)NN)c1
Reply: 99 to 101 °C

Task item: Look up and report measured melting point for this entry: O=S(=O)(Cl)Cc1noc2ccccc12
Reply: 96 to 98 °C

Task item: Look up and report measured melting point for this entry: CC(C)Oc1ccc2ccccc2c1C=O
Reply: 65 to 67 °C

Task item: Look up and report measured melting point for this entry: Nc1ccc(CN2C(=O)CCC2=O)cc1
Reply: 141 to 143 °C

Task item: Look up and report measured melting point for this entry: Cc1ccc(NC(=O)OCC(F)(F)F)s1
Reply: 73 to 75 °C

Task item: Look up and report measured melting point for this entry: CC1CCc2c(sc3nc(S)n(Cc4ccco4)c(=O)c23)C1 (centres undefined)
Reply: 275 to 277 °C

Task item: Look up and report measured melting point for this entry: CC(C)n1ncc2cc(S(=O)(=O)Cl)ccc21
Reply: 88 to 90 °C

Task item: Look up and report measured melting point for this entry: Cc1cc2n(n1)C(C(F)(F)F)CCN2 (centres undefined)
Reply: 169 to 171 °C

Task item: Look up and report measured melting point for this entry: Cc1cc(C)c(C)c(Oc2c(C(=O)O)c(C)nn2C)c1
Reply: 215 to 217 °C

Task item: Look up and report measured melting point for this entry: NCCNC(=O)c1ccc(O)cc1
Reply: 191 to 193 °C

Task item: Look up and report measured melting point for this entry: O=C(O)CCN1CCSC1=O
Reply: 91 to 93 °C

Task item: Look up and report measured melting point for this entry: Cc1n[nH]cc1N
Reply: 93 to 95 °C

Task item: Look up and report measured melting point for this entry: FC(F)(F)Cn1c(S)nnc1-c1ccncc1
Reply: 243 to 245 °C

Task item: Look up and report measured melting point for this entry: CC(C)c1noc(-c2ccccc2C(=O)O)n1
Reply: 141 to 143 °C

Task item: Look up and report measured melting point for this entry: O=C(O)C1CCN(C(=O)c2ccoc2)CC1
Reply: 103 to 105 °C

Task item: Look up and report measured melting point for this entry: CS(=O)(=O)c1ccc(C(=O)Nc2c(Cl)cc(N)cc2Cl)cc1
Reply: 238 to 240 °C

Task item: Look up and report measured melting point for this entry: CCn1c(C)cc(C(=O)CCl)c1C
Reply: 89 to 91 °C

Task item: Look up and report measured melting point for this entry: CC1Nc2ncccc2NC1=O (centres undefined)
Reply: 272 to 274 °C

Task item: Look up and report measured melting point for this entry: O=C(O)c1cnc2ccsc2c1
Reply: 259 to 261 °C

Task item: Look up and report measured melting point for this entry: O=C(O)C(=Cc1ccc(F)cc1)c1cccs1
Reply: 185 to 187 °C

Task item: Look up and report measured melting point for this entry: NCc1ccc(OCC(N)=O)cc1
Reply: 106 to 108 °C

Task item: Look up and report measured melting point for this entry: NNc1ncnc2nc[nH]c12
Reply: 235 to 237 °C

Task item: Look up and report measured melting point for this entry: CC(NC(=O)c1cc(F)ccc1N)c1ccc(C#N)cc1 (centres undefined)
Reply: 139 to 141 °C

Task item: Look up and report measured melting point for this entry: NS(=O)(=O)c1ccc(Cl)c2ccccc12
Reply: 181 to 183 °C

Task item: Look up and report measured melting point for this entry: O=C(NO)c1cccs1
Reply: 124 to 126 °C

Task item: Look up and report measured melting point for this entry: CC(C)(C)OC(=O)N1CCC(OC(=O)c2ccc(N)cc2)CC1
Reply: 147 to 149 °C
